# Tested on: Ctenocephalides felis
# SETTINGS: 24 h; data from laboratory 1
Binarize C. felis Mortality (%) 24 h at 30%; below is satisfied, at or above is not satisfied.

COMPOUND | LABEL VALUE
CC(=NN(C)c1ccccc1C(F)(F)F)c1cc(Cl)ccc1NS(=O)(=O)C(F)(F)F | satisfied
C#CCN(c1ccc(Cl)cc1C(C)=NN(C)c1ccccc1)S(=O)(=O)C(F)(F)F | satisfied

Query string: Record `CC(=NN(C)c1ccc(Cl)cn1)c1cc(Cl)ccc1NS(=O)(=O)C(F)(F)F` : is its C. felis Mortality (%) 24 h strictly below 30%?
Result string: not satisfied

Query string: Record `CCCN(N=C(C)c1cc(Cl)ccc1NS(=O)(=O)C(F)(F)F)c1cc(Cl)ccc1Cl` : is its C. felis Mortality (%) 24 h strictly below 30%?
Result string: not satisfied

Query string: Record `CC/C(=N\N(C)C1CCCCC1)c1cc(Cl)ccc1NS(=O)(=O)C(F)(F)F` : is its C. felis Mortality (%) 24 h strictly below 30%?
Result string: not satisfied

Query string: Record `CC(=NN(C)c1ccc(F)cc1)c1cc(Cl)ccc1NS(=O)(=O)C(F)(F)F` : is its C. felis Mortality (%) 24 h strictly below 30%?
Result string: not satisfied

Query string: Record `O=S(=O)(Nc1ccc(Cl)cc1C(=NN1CCOCC1)c1ccccc1)C(F)(F)F` : is its C. felis Mortality (%) 24 h strictly below 30%?
Result string: not satisfied

* * *

# System: Ctenocephalides felis
# SETTINGS: 8 h; data from laboratory 1
MEASUREMENT TYPE: C. felis Mortality (%) 8 h
Report the value in % with no unit label.

The following compounds have reported results that may help.
COMPOUND | SYSTEM | C. felis Mortality (%) 8 h
C=CCN(N=C(C)c1cc(Cl)ccc1NS(=O)(=O)C(F)(F)F)c1ccccc1 | Ctenocephalides felis | 17
O=S(=O)(Nc1ccc(Cl)cc1-c1cc[nH]n1)C(F)(F)F | Ctenocephalides felis | 25
CC(=NN1CCCCC1)c1ccccc1NS(=O)(=O)C(F)(F)F | Ctenocephalides felis | 7

Query string: GET C. felis Mortality (%) 8 h where system = Ctenocephalides felis and item = `CC(=NNC(=O)c1ccc(Cl)cc1Cl)c1cc(Cl)ccc1NS(=O)(=O)C(F)(F)F`
Result string: 12

Query string: GET C. felis Mortality (%) 8 h where system = Ctenocephalides felis and item = `CC(=NN1CCN(C)CC1)c1cc(Cl)ccc1NS(=O)(=O)C(F)(F)F`
Result string: 2

Query string: GET C. felis Mortality (%) 8 h where system = Ctenocephalides felis and item = `CC(=NN(C)c1ccc2ccccc2n1)c1cc(Cl)ccc1NS(=O)(=O)C(F)(F)F`
Result string: 2

Query string: GET C. felis Mortality (%) 8 h where system = Ctenocephalides felis and item = `O=S(=O)(Nc1ccc(Cl)cc1C(=NN1CCCCC1)c1ccccc1)C(F)(F)F`
Result string: 15

Query string: GET C. felis Mortality (%) 8 h where system = Ctenocephalides felis and item = `CC(=Nn1cccn1)c1cc(Cl)ccc1NS(=O)(=O)C(F)(F)F`
Result string: 2

* * *

# Test system: Rhipicephalus sanguineus
# TEST NAME: Rapid screening protocol for topical application on brown dog ticks (% mortality)
# SETTINGS: data from laboratory 2
List of R. sanguineus Mortality (%) 24 h values.
State the value, then name its unit.

The following compounds have reported results that may help.
COMPOUND | RESULT
CC(=NN(c1ccccc1)C(C)C)c1cc(Cl)ccc1NS(=O)(=O)C(F)(F)F [Compound 28] | 68%
CC(=NN(C)c1ccc(C(F)(F)F)cc1)c1cc(Cl)ccc1NS(=O)(=O)C(F)(F)F [Compound 65] | 100%
CCN(N=C(C)c1cc(Cl)ccc1NS(=O)(=O)C(F)(F)F)c1ccccc1Cl [Compound 37] | 83%
CCC(=NN1CCCCC1)c1cc(Cl)ccc1NS(=O)(=O)C(F)(F)F [Compound 129] | 98%
CCN(N=C(C)c1cc(Cl)ccc1NS(=O)(=O)C(F)(F)F)c1ccc(F)cc1 [Compound 39] | 100%

Query string: GET R. sanguineus Mortality (%) 24 h where system = Rhipicephalus sanguineus and item = CCOC(=O)N(C)N=C(C)c1cc(Cl)ccc1NS(=O)(=O)C(F)(F)F [Compound 126]
Result string: 100%

Query string: GET R. sanguineus Mortality (%) 24 h where system = Rhipicephalus sanguineus and item = CCN(N=C(C)c1cc(Cl)ccc1NS(=O)(=O)C(F)(F)F)c1cccc(Cl)c1 [Compound 38]
Result string: 98%

Query string: GET R. sanguineus Mortality (%) 24 h where system = Rhipicephalus sanguineus and item = CCN(N=C(C)c1cc(Cl)ccc1NS(=O)(=O)C(F)(F)F)c1ccccc1F [Compound 43]
Result string: 100%

Query string: GET R. sanguineus Mortality (%) 24 h where system = Rhipicephalus sanguineus and item = CCC(=NN1CCOCC1)c1cc(Cl)ccc1NS(=O)(=O)C(F)(F)F [Compound 36]
Result string: 100%

Query string: GET R. sanguineus Mortality (%) 24 h where system = Rhipicephalus sanguineus and item = CCN(N=C(C)c1cc(Cl)ccc1NS(=O)(=O)C(F)(F)F)c1ccc(Cl)cc1 [Compound 26]
Result string: 97%

Query string: GET R. sanguineus Mortality (%) 24 h where system = Rhipicephalus sanguineus and item = CCC(=NN(C)C(=O)c1ccc(Cl)cc1Cl)c1cc(Cl)ccc1NS(=O)(=O)C(F)(F)F [Compound 82]
Result string: 100%

Query string: GET R. sanguineus Mortality (%) 24 h where system = Rhipicephalus sanguineus and item = CCCN(N=C(C)c1cc(Cl)ccc1NS(=O)(=O)C(F)(F)F)c1ccc(Cl)cc1 [Compound 27]
Result string: 95%

Query string: GET R. sanguineus Mortality (%) 24 h where system = Rhipicephalus sanguineus and item = CC(=NN(C)c1cccc(Cl)c1)c1cc(Cl)ccc1NS(=O)(=O)C(F)(F)F [Compound 51]
Result string: 100%
